Quick list: pKd per entry.
target: soluble human IL-6Rc (shuIL-6Rc) recombinant fusion protein of IL-6R and IL-6 (human) (UniProt P08887); assay: SPR (Biacore 2000), mAb captured on anti-human IgG Fc, analyte in solution, 25 C, 1:1 Langmuir
In plain terms, pKd is the concentration in mol/L turned into minus its base-10 logarithm.

Some entries whose results are on file:
[
  {
    "binder": "NI-1201 wild type (NI-1201-WT) antibody (antibody, V domains shown, Fully human monoclonal IgG (captured by anti-human IgG Fc in Biacore); also called 39B9 VL1) VH: QVQLVQSGAEVKKPGSSVKVSCKASGGTFSSYAISWVRQAPGQGLEWMGGIIPLFDTTKYAQQFQGRVTITADESTSTAYMELSSLRSEDTAVFYCARDRDILTDYYPMGGMDVWGQGTTVTVSS VL: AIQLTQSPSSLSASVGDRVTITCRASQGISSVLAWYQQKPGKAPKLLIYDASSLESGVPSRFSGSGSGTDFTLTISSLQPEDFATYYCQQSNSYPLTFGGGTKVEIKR",
    "pKd": 8.25
  },
  {
    "binder": "NI-1201-C antibody (antibody, V domains shown) VH: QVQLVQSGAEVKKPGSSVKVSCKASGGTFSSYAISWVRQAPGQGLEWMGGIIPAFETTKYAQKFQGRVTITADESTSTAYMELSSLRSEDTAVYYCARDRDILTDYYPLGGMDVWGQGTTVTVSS VL: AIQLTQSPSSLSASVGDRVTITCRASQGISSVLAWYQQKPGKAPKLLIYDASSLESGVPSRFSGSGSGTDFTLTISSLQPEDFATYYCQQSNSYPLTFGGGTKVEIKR",
    "pKd": 8.30
  },
  {
    "binder": "NI-1201-A antibody (antibody, V domains shown) VH: QVQLVQSGAEVKKPGSSVKVSCKASGGTFSSYAISWVRQAPGQGLEWMGGIIPLFDTTKYAQKFQGRVTITADESTSTAYMELSSLRSEDTAVYYCARDRDILTDYYPMGGMDVWGQGTTVTVSS VL: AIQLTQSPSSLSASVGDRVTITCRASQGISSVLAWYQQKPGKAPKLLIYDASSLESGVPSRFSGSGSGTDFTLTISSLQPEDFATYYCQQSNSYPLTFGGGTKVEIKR",
    "pKd": 8.31
  }
]

IN: Determine from records and report pKd for NI-1201-B antibody (antibody, V domains shown) VH: QVQLVQSGAEVKKPGSSVKVSCKASGGTFSSYAISWVRQAPGQGLEWMGGIIPLFDTTKYAQKFQGRVTITADESTSTAYMELSSLRSEDTAVYYCARDRDILTDYYPLGGMDVWGQGTTVTVSS VL: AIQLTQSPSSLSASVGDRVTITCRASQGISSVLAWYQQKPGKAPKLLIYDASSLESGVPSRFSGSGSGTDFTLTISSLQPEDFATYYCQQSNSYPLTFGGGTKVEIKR
OUT: 8.35

IN: Using the record for NI-1201-D antibody (antibody, V domains shown) VH: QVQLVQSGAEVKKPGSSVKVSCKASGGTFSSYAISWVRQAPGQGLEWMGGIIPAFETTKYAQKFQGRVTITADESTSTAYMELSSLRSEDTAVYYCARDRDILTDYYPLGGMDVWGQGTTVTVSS VL: AIQLTQSPSSLSASVGDRVTITCRASQGISSVLAWYQQKPGKAPKLLIYDASSLESGVPSRFSGSGSGTDFTLTISSLQPEDFATYYCQQSQSYPLTFGGGTKVEIKR , state its measured pKd.
OUT: 8.31
